tested on: Enterococcus faecium; assay: Antibacterial activity against glycopeptide resistant Enterococcus faecium 569 strain; type: functional
Measurement type: MIC

Molecule	MIC
CN[C@H](CC(C)C)C(=O)N[C@H]1C(=O)N[C@@H](CC(N)=O)C(=O)N[C@H]2C(=O)N[C@H]3C(=O)N[C@H](C(=O)N[C@H](C(=O)O)c4cc(O)cc(O)c4-c4cc3ccc4O)[C@H](O[C@@H]3C[C@@](C)(N)[C@H](O)[C@@H](C)O3)c3ccc(cc3)Oc3cc2cc(c3O[C@H]2O[C@@H](CO)[C@H](O)[C@@H](O)[C@@H]2O[C@H]2C[C@](C)(N)[C@@H](O)[C@H](C)O2)Oc2ccc(cc2Cl)[C@H]1O [EREMOMYCIN]	> 128 µg/mL
N[C@H]1C(=O)N[C@@H]2Cc3ccc(c(Cl)c3)Oc3cc4cc(c3O)Oc3ccc(cc3Cl)[C@@H](O)[C@@H]3NC(=O)[C@H](NC(=O)[C@@H]4NC(=O)[C@@H](NC2=O)c2cc(O)cc(c2)Oc2cc1ccc2O)c1ccc(O)c(c1)-c1c(O)cc(O)cc1[C@@H](C(=O)O)NC3=O [TEICOPLANIN AGLYCON]	> 128 µg/mL

As a next step, examine the molecule that follows.
stdin: # get_value(readout='MIC', item= CN[C@H](CC(C)C)C(=O)N[C@H]1C(=O)N[C@@H](CC(N)=O)C(=O)N[C@H]2C(=O)N[C@H]3C(=O)N[C@H](C(=O)N[C@H](C(=O)O)c4cc(O)cc(O)c4-c4cc3ccc4O)[C@H](O)c3ccc(cc3)Oc3cc2cc(c3O)Oc2ccc(cc2Cl)[C@H]1O [EREMOMYCIN AGLYCON] )
stdout: > 128 µg/mL
